FYI, the data here is from patent US20240218054A1.

# MEASURED ON: T1, recombinant YFV E protein (soluble E, sE; YFV Asibi strain) (Yellow fever virus, Asibi strain, UniProt Q6DV88 286-678)
# T1 construct: also called YFV E antigen; YFV E monomer
# METHOD SUMMARY: BLI monovalent (IgG on tip)
Recorded log10 Kd for the following binders
A value of 2 here means Kd of 100 in nM, since values are log10.

1) ADI-45113 (antibody, V domains shown, full-length IgG; also called Antibody Number 20) VH: QVQLVQSGGGLVQPGGSLRLSCAASGFTFSSYAMSWVRQAPGKGLEWVSAISGSGGSTYYADSVKGRFTISRDNSKNTLHLQMSSLRAEDTAVYYCAKDPKYSSGWWAFDYWGQGTLVTVSS VL: EIVMTQSPATLSVSPGERATLSCRASQSVSSNLAWYQQKPGQAPRLLIYGASTRATGIPARFSGSGSGTEFTLTISSLQSEDFALYYCQQYDDWPLFGQGTRLEIK ... 2.40
2) ADI-42787 (antibody, V domains shown, full-length IgG; also called Antibody Number 87) VH: EVQLVESGGGVVQSGRSLRLSCAASGFTFSGNAMHWVRQAPGKGLEWVAVILYDGSNQYYADSVKGRFTISRDNSKNTLYLQMNSLRPADTAVYYCARASMMPRPPVHDYWGQGTLVTVSS VL: DIRVTQSPATLSVSPGERATLSCRASQRVNSNLAWYQQKPGQAPRLLIYGASTRATGIPVRFSGSGSGTEFTLTISSLQSEDFAVYYCQQYNTWWTFGQGTKVEIK ... -0.35
3) ADI-45076 (antibody, V domains shown, full-length IgG; also called Antibody Number 97) VH: EVQLVESGGGFVQPGGSLRLSCAASGFIFSDYYMDWVRQAPGKGLEWVGRIRNKPNSYTTEYAASVKGRFSISRDDLKNSLYLQMNSLKTEDTAEYYCARVDGEEVALIYWGQGALVTVSS VL: DIQMTQSPSSLSASVGDRVTITCRASQTITRYMNWYQQKPGEAPKLLIYATSSLQSGVPSRFSGSGSGTDFTLTITNLQPADFATYYCQQSSTTRWTFGQGTKVDIK ... -0.05

ADI-42217 (antibody, V domains shown, full-length IgG) VH: EVQLVESGGGVVQPGRSLRLSCADSGFTFSYSAIHWVRQAPGKGLEWVAVISYDGSNKYYADSVKGRFTISRDNSKNTLYLQMNSLRPEDTAVYYCARHSGGYSSKDKPTEYFQHWGQGTLVTVSS VL: QSVLTQPPSVSGAPGQRVTISCTGSSSDIGAGYDVHWYQQLPGTAPKLLIYGNTNRPSGVPDRFSGSKSGTSASLAITGLQAEDEADYYCQSYDSSLSGVVFGGGTKLTVL yielded log10 Kd of 0.60

ADI-49138 (antibody, V domains shown, full-length IgG; also called Antibody Number 44) VH: QVQLVESGGGVVQPGRSLRLSCAASGFTFSNSGMHWVRQAPGKGLEWVSVIWYDESNKYYADSVKGRFTISRDNSKNTVYLQMNTLRAEDTAVYYCARDAYASGDGGIDYWGQGALVTVSS VL: QPVLTQSASVSGSPGQSITISCTGTSSDVGGYKYVSWYQQHPGKAPKLMIYEVSNRPSGVSIRFSGSKSGNTASLTISGLQAADEADYYCSSYRSSGTPYVFGTGTKVTVL yielded log10 Kd of 1.24

ADI-42212 (antibody, V domains shown, full-length IgG; also called Antibody Number 99) VH: EVQLVESGGGLVQPGGSLRLSCAASGFTFSDHYMDWVRQAPGKGLEWVGRSRNKPNSYITEYAASVKGRFTISRDDSKNSLYLQMNSLKTEDTAVYYCSRHMGFGLDLWGQGTLVTVSS VL: SYELTQPPSVSVSPGQTATITCSGDKLGYTYTCWYQQKPGQSPVLVIYQDTKRPSGIPERFSGSNSGNTATLTITGTQAMDEADYYCQAWDTTTAGGVFGGGTKLTVL yielded log10 Kd of -0.05

ADI-42189 (antibody, V domains shown, full-length IgG; also called Antibody Number 81) VH: EVQLVESGGGVVQPGWSLRLSCAVSGFTFSSYAMHWVRQAPGKGLEWVAVISYDGSYKWYADSVKGRFTISRDNSKNTVYLQMNSLRAEDTAVYYCASLWFIVMTMSKNPETDYWGQGTLVTVSS VL: DIQVTQSPSSLSASVGDRVTITCRASQGIRNDLAWYQQRPGKAPKRLIYAASSLQSGVPSRFSGSGSGTEFTLTISSLQPEDFATYYCLQHHSYPWTFGQGTKVEIK yielded log10 Kd of 0.38

ADI-48894 (antibody, V domains shown, full-length IgG) VH: EVQLVESGGGLVQPGGSLRLSCAVSGFTFSDHYMDWVRQAPGKGLEWVGRSRNKVNSYITEYAASVKGRFSISRDDSKNSLYLQMNSLKIEDTAVYYCARVFGGPTDYWGQGTLVTVSS VL: EIVLTQSPSSLSASVGDRVTITCRASQGISNYLAWYQQKPGKAPKLLIYAASTLQSGVPSRFSGSGSGTDFILTISSLQPEDVATYYCQKYYSAPLITFGPGTKVEIK yielded log10 Kd of 1.98
